For each of the binders below, state its peptide exchange yield.
target: HLA-B*44 (human); assay: UV peptide exchange ELISA

Which peptide exchange yield value is on record for EEGRVYLF ?
50 to 75%

Note, next up: AEIQGNINHV
50 to 75%

Note, next up: AELDKLTSV
50 to 75%

Note, next up: TDSIHAWTF
50 to 75%

Note, next up: SEKGVIQVY
50 to 75%

Note, next up: TEGIIMKDF
20 to 50%

Note, next up: EDAQGHIW
50 to 75%

Note, next up: TENRYCVQL
> 75%

Note, next up: EEIEGKGSFTYF
50 to 75%

Note, next up: SEIGKAVGF
> 75%

Note, next up: NEHPSNNW
50 to 75%

Note, next up: SEGSEPALLHSW
50 to 75%

Note, next up: AEDQLHHSF
50 to 75%

Note, next up: MEVDPIGHVYIF
> 75%

Note, next up: AEVGFVRFF
> 75%

Note, next up: AEIQPQTQV
50 to 75%

Note, next up: SEMNVNMKY
> 75%

Note, next up: SEFMQVIF
50 to 75%

Note, next up: QEQDVDLVQKY
20 to 50%

Note, next up: AENLFRAF
20 to 50%

Note, next up: TEFTTVLY
20 to 50%

Note, next up: GEIIMQNNW
> 75%

Note, next up: KELEATKQY
20 to 50%

Note, next up: KEVDPAGHSY
20 to 50%

Note, next up: DEVNFLVY
10 to 20%

Note, next up: MEVPVIKI
20 to 50%

Note, next up: GECDVFKEIL
50 to 75%

Note, next up: KEGDLGGKQW
50 to 75%

Note, next up: MEMQKSPVF
50 to 75%

Note, next up: AEEEIMKKI
20 to 50%

Note, next up: EENDQSTHKW
50 to 75%

Note, next up: YEDLSQKY
20 to 50%
